experiment: Antagonist activity at P2Y12 receptor in human platelet rich plasma assessed as inhibition of ADP-induced aggregation
pIC50: −log10 of the molar value.
READOUT NAME: pIC50

structure=CCCC(=O)c1cnn(-c2ccc(NC(=O)c3cn(CC(=O)N4CCN(CC(=O)N(C)C)CC4)c4ccc(Cl)cc34)cc2)c1C measured=6.40
structure=CCOC(=O)c1c(C)nn(-c2ccc(C(=O)NCc3ccccc3OC)cc2)c1C measured=4.77
structure=CCCC(=O)c1cnn(-c2ccc(NC(=O)c3cn(CC(=O)O)c4cc(C)c(C)cc34)cc2)c1C measured=6.40

a: CCCC(=O)c1cnn(-c2ccc(NC(=O)c3c(C)n(CC(=O)O)c4ccc(C)cc34)cc2)c1C
b: CCCC(=O)c1cnn(-c2ccc(NC(=O)c3cn(CC(=O)N4CCN(C)CC4)c4cc(F)c(Cl)cc34)cc2)c1C
c: CCCC(=O)c1cnn(-c2ccc(NC(=O)c3cn(CC(=O)N(C)C)c4cc(C)c(C)cc34)cc2)c1C
[ask] Please give the order of these compounds when sorted by pIC50, largest value leading. Order the labels as requested and give them as your answer.
[reply] b, c, a
(b: 6.30, c: 6.10, a: 4.82)
